Recorded Size (nm) values for a group of molecules are listed next.
experiment: LNP size and polydispersity index (PDI) by dynamic light scattering (DLS); type: physicochemical; details: Table 10; LNP with hEPO mRNA, Lipid:DSPC:Cholesterol:DMG-PEG2k 50:10:38.5:1.5 mol %, N:P ratio 6; DLS
The reply should be a number in nm, with the unit left off.

CCCCCCCCCCCOC(=O)CCCCCN(CCO)CCCCCCCC(=O)OC(CCCCCCCC)CCCCCCCC [SM-102, reference compound]	56.5

Fill blank: measured Size (nm) of the molecule CCCCCCCCCC(CCCCCCCCC)C(=O)OCCN(CCOC(=O)C(CCCCCCCCC)CCCCCCCCC)C(=O)CCN(C)CC [Compound 917e] is ____.
52.5

Subsequent entry: CCCCCCCCC(CCCCCC)C(=O)OCCCCCCN(CCCCO)CCCCCCOC(=O)C(CCCCCC)CCCCCCCC (stereo not drawn) [ALC-0315, reference compound]
61.4

====

experiment: LNP Zeta potential measured using a Zetasizer (Malvern); type: physicochemical; conditions: Table 1; LNP lipid:DSPC:Cholesterol:DMG-PEG2k 50:10:38.5:1.5 mol %; hEPO mRNA; N:P 6
Catalogue of Zeta potential values

CCCCCCCC/C=C\CCCCCCCC(=O)OCCN(CCOC(=O)CCCCCCC/C=C\CCCCCCCC)C(=O)CN	4.394 mV
CCCCCCCCCCCOC(=O)CCCCCN(CCO)CCCCCCCC(=O)OC(CCCCCCCC)CCCCCCCC [SM-102, reference compound]	−3.729 mV
CCCCCCCCCCCC(=O)OCCN(CCOC(=O)CCCCCCCCCCC)C(=O)C(N)CO (stereo not shown)	6.281 mV

From here, focus on the item given below.
// query Zeta potential value for entry CCCCCCCCCCCC(=O)OCCN(CCOC(=O)CCCCCCCCCCC)C(=O)C(N)Cc1ccccc1 (stereo not shown)
−2.403 mV

====

assay: LNP size and polydispersity index (PDI) by dynamic light scattering (DLS); assay type: physicochemical; settings: Table 8; LNP Lipid:DSPC:Cholesterol:DMG-PEG2k 50:10:38.5:1.5 mol %; hEPO mRNA; N:P 6
Measure name: Size (nm)
API: value field is a number in nm; no unit string.

CCCCCCCCC(CCCCCC)C(=O)OCCN(CCOC(=O)C(CCCCCC)CCCCCCCC)C(=O)CCCN1CCCC1.Cl (stereo not shown)	120.5

Look at this compound and give its reported Size. CCCCCCCCC(CCCCCC)C(=O)OCCN(CCOC(=O)C(CCCCCC)CCCCCCCC)C(=O)CCNC.Cl (stereo not shown)
86.7

Continue with CCCCCCCCC(CCCCCC)C(=O)OCCN(CCOC(=O)C(CCCCCC)CCCCCCCC)C(=O)CCCN(CC)CC.Cl (stereo not shown)
144

Next: CCCCCCCCC(CCCCCC)C(=O)OCCN(CCOC(=O)C(CCCCCC)CCCCCCCC)C(=O)C(C)CNCC.Cl (stereo not shown)
79.6

====

test: Encapsulation efficiency (EE %) by fluorescence based Ribogreen assay; assay type: physicochemical; conditions: Table 6; LNP 60:0:38.5:1.5 mol %; hEPO mRNA; N:P 6
Encapsulation Efficiency % overview
Kindly provide the numeric value in % only, without the unit symbol.

Below, each entry is followed by its recorded Encapsulation Efficiency % result.
CCCCCCCCC(CCCCCC)C(=O)OCCN(CCOC(=O)C(CCCCCC)CCCCCCCC)C(=O)CCCN (stereo not drawn)	99.9
CCCCCCCCC(CCCCCC)C(=O)OCCN(CCOC(=O)C(CCCCCC)CCCCCCCC)C(=O)CCCN(C)C (stereo not drawn)	99.7
CCCCCCCCC(CCCCCC)C(=O)OCCN(CCOC(=O)C(CCCCCC)CCCCCCCC)C(=O)CCC(C)N (stereo not drawn)	99.9
CCCCCCCCC(CCCCCC)C(=O)OCCN(CCOC(=O)C(CCCCCC)CCCCCCCC)C(=O)CCN(C)C (stereo not drawn)	99.2
CCCCCCCCC(CCCCCC)C(=O)OCCN(CCOC(=O)C(CCCCCC)CCCCCCCC)C(=O)CCN (stereo not drawn)	98.4

Can you share its Encapsulation Efficiency %? I mean this compound: CCCCCCCCC(CCCCCC)C(=O)OCCN(CCOC(=O)C(CCCCCC)CCCCCCCC)C(=O)CC(C)N (stereo not drawn)
98.4
